- Tested on: Penicillium notatum STI:50164
- procedure details: Antifungal inhibition zone test, P. notatum
- Assay type: cell-based
- condition notes: JMRC-No. STI:50164; Supplementary Table 6; solvent gave 10
Hi there, I'd appreciate the recorded Inhibition zone diameter, Penicillium notatum for every entry that follows.
I'd appreciate a reply containing only the number, no unit.

Lab note: CC(C)[C@H]1OC(=O)[C@H](Cc2ccccc2)N(C)C(=O)[C@@H](C(C)C)OC(=O)[C@H](Cc2ccccc2)N(C)C(=O)[C@@H](C(C)C)OC(=O)[C@H](Cc2ccccc2)N(C)C(=O)[C@@H](C(C)C)OC(=O)[C@H](Cc2ccccc2)N(C)C1=O [octa-beauvericin] gave Inhibition zone diameter, Penicillium notatum of 0

Lab note: CC(C)C[C@H]1C(=O)O[C@H](C(C)C)C(=O)N(C)[C@@H](CC(C)C)C(=O)O[C@H](C(C)C)C(=O)N(C)[C@@H](CC(C)C)C(=O)O[C@H](C(C)C)C(=O)N1C [hexa-bassianolide] gave Inhibition zone diameter, Penicillium notatum of 0

Lab note: CC(C)C[C@H]1C(=O)O[C@H](C(C)C)C(=O)N(C)[C@@H](CC(C)C)C(=O)O[C@H](C(C)C)C(=O)N(C)[C@@H](CC(C)C)C(=O)O[C@H](C(C)C)C(=O)N(C)[C@@H](CC(C)C)C(=O)O[C@H](C(C)C)C(=O)N1C [bassianolide] gave Inhibition zone diameter, Penicillium notatum of 0

// provenance: paper PMC5674221
